molecular target: MET channel (Mus musculus, UniProt Q8R4P5); construct: the basilar membrane with hair cells was acutely dissected from neonatal mice; endogenous in cells; host or cells: outer hair cells of acutely dissected neonatal mouse cochlea; assay: MET current (IMET) inhibition by blockers, whole-cell voltage clamp of OHCs with glass-probe hair-bundle deflection; type: cell-based; settings: OHCs, 800 nm step deflection, […] Ca2+, holding −70 mV, Hill fit; read-out: IC50, IMET
Sequence (Q8R4P5 whole entry): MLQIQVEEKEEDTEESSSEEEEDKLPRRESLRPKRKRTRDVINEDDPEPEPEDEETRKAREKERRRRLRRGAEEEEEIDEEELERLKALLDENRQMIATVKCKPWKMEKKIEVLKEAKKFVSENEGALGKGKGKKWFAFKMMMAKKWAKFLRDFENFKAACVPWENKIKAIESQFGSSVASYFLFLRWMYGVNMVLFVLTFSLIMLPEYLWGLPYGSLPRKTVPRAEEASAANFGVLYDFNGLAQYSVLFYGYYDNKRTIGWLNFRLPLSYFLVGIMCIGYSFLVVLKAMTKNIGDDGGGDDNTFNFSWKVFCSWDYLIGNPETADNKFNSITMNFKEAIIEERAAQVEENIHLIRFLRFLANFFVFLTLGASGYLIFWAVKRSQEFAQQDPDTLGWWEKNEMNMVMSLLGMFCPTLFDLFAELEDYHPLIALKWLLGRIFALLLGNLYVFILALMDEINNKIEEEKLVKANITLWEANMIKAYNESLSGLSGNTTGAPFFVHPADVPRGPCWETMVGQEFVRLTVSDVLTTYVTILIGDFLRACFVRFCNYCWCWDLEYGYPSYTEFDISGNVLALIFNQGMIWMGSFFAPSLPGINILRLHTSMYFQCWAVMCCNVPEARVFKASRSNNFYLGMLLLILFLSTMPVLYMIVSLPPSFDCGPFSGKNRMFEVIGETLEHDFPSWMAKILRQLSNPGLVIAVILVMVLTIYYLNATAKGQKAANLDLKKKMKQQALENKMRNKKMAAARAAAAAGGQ
Sequence (Q4KL25 whole entry partner): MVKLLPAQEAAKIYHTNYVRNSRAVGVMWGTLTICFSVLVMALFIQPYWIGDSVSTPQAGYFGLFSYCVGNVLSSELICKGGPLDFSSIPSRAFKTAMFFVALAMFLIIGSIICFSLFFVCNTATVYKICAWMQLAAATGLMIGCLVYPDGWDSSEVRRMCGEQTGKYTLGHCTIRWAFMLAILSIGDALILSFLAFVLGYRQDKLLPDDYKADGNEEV
Sequence (Q8K467 29-153 partner): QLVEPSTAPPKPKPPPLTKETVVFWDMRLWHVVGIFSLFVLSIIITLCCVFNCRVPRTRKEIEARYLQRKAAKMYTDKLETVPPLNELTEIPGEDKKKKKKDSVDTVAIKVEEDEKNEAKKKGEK
Sequence (Q9Z309 whole entry partner): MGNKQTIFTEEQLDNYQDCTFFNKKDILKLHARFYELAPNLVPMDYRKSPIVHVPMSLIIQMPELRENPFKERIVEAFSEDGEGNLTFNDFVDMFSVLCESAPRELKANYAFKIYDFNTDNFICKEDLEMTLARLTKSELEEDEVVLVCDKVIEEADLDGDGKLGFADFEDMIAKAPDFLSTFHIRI
measuredMetric: pIC50
Please note pIC50 is a logarithmic value: minus log10 of concentration in mol/L. Answer with that number alone.

## Input Look up pIC50 for this molecule: [Cl][La]([Cl])[Cl]
## Output 3.59
